- Tested on: DEL;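 further: growth inhibition of the human DEL cell line, read out with a cell viability assay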
- test.protocol: cells
- Assay type: functional, cell-based
- measurement.context: Homo sapiens
- Description: SANGER: Inhibition of human DEL cell growth in a cell viability assay.
Reported IC50 values for a set of molecules

Req: Annotate the molecule Nc1ccn([C@@H]2O[C@H](CO)[C@@H](O)[C@@H]2O)c(=O)n1 [CYTARABINE] with its measured IC50.
Resp: 875 nM

Req: Using the record for Cn1cncc1[C@@](N)(c1ccc(Cl)cc1)c1ccc2c(c1)c(-c1cccc(Cl)c1)cc(=O)n2C [TIPIFARNIB] , state its measured IC50.
Resp: 1030 nM

Req: For the molecule Cn1cc(C2=C(c3ccc(Cl)cc3Cl)C(=O)NC2=O)c2ccccc21 [SB-216763] , give its reported IC50.
Resp: > 10000 nM

The origin of these recorded values is ChEMBL document CHEMBL1201861.
